All values here come from paper PMC5479831.

- Substrate: CCOC(=O)C(=O)CCc1ccccc1
- protocol-text: purified protein
- Type: biochemical, Thermotoga maritima
- test-settings: apparent, 0.25 mM NADPH, 50 mM potassium phosphate pH 6.5, 35 °C, 30 mM DMSO
# maps each entry to its Km
Unit µM implied. Number only.

INSERT INTO assay_data (protein, measured_parameter, measurement_units, meas_value) VALUES
  ('Tm1743 (Thermotoga maritima MSB8) (protein) MLYKELGRTGEEIPALGLGTWGIGGFETPDYSRDEEMVELLKTAIKMGYTHIDTAEYYGGGHTEELIGKAIKDFRREDLFIVSKVWPTHLRRDDLLRSLENTLKRLDTDYVDLYLIHWPNPEIPLEETLSAMAEGVRQGLIRYIGVSNFDRRLLEEAISKSQEPIVCDQVKYNIEDRDPERDGLLEFCQKNGVTLVAYSPLRRTLLSEKTKRTLEEIAKNHGATIYQIMLAWLLAKPNVVAIPKAGRVEHLRENLKATEIKLSEEEMKLLDSLG', 'Km', 'µM', 1100),
  ('Tm1743 (Thermotoga maritima MSB8; W118E/W21L) (protein) MLYKELGRTGEEIPALGLGTLGIGGFETPDYSRDEEMVELLKTAIKMGYTHIDTAEYYGGGHTEELIGKAIKDFRREDLFIVSKVWPTHLRRDDLLRSLENTLKRLDTDYVDLYLIHEPNPEIPLEETLSAMAEGVRQGLIRYIGVSNFDRRLLEEAISKSQEPIVCDQVKYNIEDRDPERDGLLEFCQKNGVTLVAYSPLRRTLLSEKTKRTLEEIAKNHGATIYQIMLAWLLAKPNVVAIPKAGRVEHLRENLKATEIKLSEEEMKLLDSLG', 'Km', 'µM', 10530);

query: What Km value was documented for this protein, Tm1743 (Thermotoga maritima MSB8; W21S/W86N) (protein) MLYKELGRTGEEIPALGLGTSGIGGFETPDYSRDEEMVELLKTAIKMGYTHIDTAEYYGGGHTEELIGKAIKDFRREDLFIVSKVNPTHLRRDDLLRSLENTLKRLDTDYVDLYLIHWPNPEIPLEETLSAMAEGVRQGLIRYIGVSNFDRRLLEEAISKSQEPIVCDQVKYNIEDRDPERDGLLEFCQKNGVTLVAYSPLRRTLLSEKTKRTLEEIAKNHGATIYQIMLAWLLAKPNVVAIPKAGRVEHLRENLKATEIKLSEEEMKLLDSLG ?
result: 1620

query: What Km value was documented for this protein, Tm1743 (Thermotoga maritima MSB8; W118H/W21L) (protein) MLYKELGRTGEEIPALGLGTLGIGGFETPDYSRDEEMVELLKTAIKMGYTHIDTAEYYGGGHTEELIGKAIKDFRREDLFIVSKVWPTHLRRDDLLRSLENTLKRLDTDYVDLYLIHHPNPEIPLEETLSAMAEGVRQGLIRYIGVSNFDRRLLEEAISKSQEPIVCDQVKYNIEDRDPERDGLLEFCQKNGVTLVAYSPLRRTLLSEKTKRTLEEIAKNHGATIYQIMLAWLLAKPNVVAIPKAGRVEHLRENLKATEIKLSEEEMKLLDSLG ?
result: 15980

query: What Km value was documented for this protein, Tm1743 (Thermotoga maritima MSB8; W21S/W86E) (protein) MLYKELGRTGEEIPALGLGTSGIGGFETPDYSRDEEMVELLKTAIKMGYTHIDTAEYYGGGHTEELIGKAIKDFRREDLFIVSKVEPTHLRRDDLLRSLENTLKRLDTDYVDLYLIHWPNPEIPLEETLSAMAEGVRQGLIRYIGVSNFDRRLLEEAISKSQEPIVCDQVKYNIEDRDPERDGLLEFCQKNGVTLVAYSPLRRTLLSEKTKRTLEEIAKNHGATIYQIMLAWLLAKPNVVAIPKAGRVEHLRENLKATEIKLSEEEMKLLDSLG ?
result: 1250
